System: OV90
Experiment: Primary qHTS to identify gynecologic anti-cancer compounds using libraries of approved drugs and bioactive compounds (AID 1345084); note: nearly all actives have a fitted effect of over 55% in size
Conditions: Gynecologic cancer cell panel viability, ATPlite luminescence, 48 h; series mostly up to 57.5 µM
Records with an inconclusive call do not appear. The source made the active and inactive calls. Calls come from the whole dose curve; as a rule, active = well fitted cell-killing curve with a large enough effect; inconclusive = small, poorly fitted or top-dose-only effect, or effect the other way; inactive = flat fitted curve, though single readings scatter.
Could you please pick one outcome from this set? true (1) = active, false (0) = inactive

A selection of reference data follows.
[
  {
    "compound": "CCC(CC)C(c1ccc(Nc2nc3ccccc3s2)cc1)n1cncn1 (stereo not drawn)",
    "classAssignment": "true (1)"
  },
  {
    "compound": "CC(=O)O[C@@]12CO[C@@H]1C[C@H](O)[C@@]1(C)C(=O)[C@H](O)C3=C(C)[C@@H](OC(=O)[C@H](O)[C@@H](NC(=O)OC(C)(C)C)c4ccccc4)C[C@@](O)([C@@H](OC(=O)c4ccccc4)C12)C3(C)C (stereo partly drawn)",
    "classAssignment": "false (0)"
  }
]

Problem: Name the outcome recorded for C=C1CC[C@@H](O)[C@]2(C)C[C@H]3OC(=O)C(=C)[C@H]3CC12 (stereo partly drawn) in the assay.
Result: false (0)

---

Biological target: Cytochrome P450 2C9 (Homo sapiens)
Experiment: Cytochrome P450 family 2 subfamily C member 9 (CYP2C9) small molecule antagonists: luciferase biochemical (cell-free) qHTS assay (AID 1645842); note: nearly all actives have a fitted effect of over 55% in size
Conditions: P450-Glo CYP2C9 enzyme assay, luciferin luminescence; series mostly up to 57.4 µM
Inconclusive results are not listed. Calls of active or inactive are those of the source. Calls come from the whole dose curve; as a rule, active = well fitted inhibition curve with a large enough effect in the repeat runs; inconclusive = weak or mixed curves; inactive = no such curve, though single readings can be large or run the other way.
Could you please pick one outcome from this set? t = active, f = inactive

A selection of reference data follows.
[
  {
    "compound": "CCCN1CCC=C(c2cc(-c3ccc(C)cc3)no2)C1",
    "testTarget": "Cytochrome P450 2C9 (Homo sapiens)",
    "classAssignment": "f"
  },
  {
    "compound": "O=C(NCc1ccc(OC(F)(F)F)cc1)C1c2c(F)cccc2C(=O)N1CCc1ccccn1 (stereo not drawn)",
    "testTarget": "Cytochrome P450 2C9 (Homo sapiens)",
    "classAssignment": "t"
  },
  {
    "compound": "CCOc1nc(NC(=O)Cc2cc(OC)ccc2OC)cc(N)c1C#N",
    "testTarget": "Cytochrome P450 2C9 (Homo sapiens)",
    "classAssignment": "t"
  },
  {
    "compound": "Fc1ccc(N2CCN(CCC3OCCc4ccccc43)CC2)cc1 (stereo not drawn)",
    "testTarget": "Cytochrome P450 2C9 (Homo sapiens)",
    "classAssignment": "f"
  },
  {
    "compound": "COc1ccc(CNc2nc(N(CCO)CCO)nc3c2ncn3C(C)C)cc1",
    "testTarget": "Cytochrome P450 2C9 (Homo sapiens)",
    "classAssignment": "t"
  },
  {
    "compound": "COC(C)=O",
    "testTarget": "Cytochrome P450 2C9 (Homo sapiens)",
    "classAssignment": "f"
  },
  {
    "compound": "O=C(OCCO)c1ccccc1O",
    "testTarget": "Cytochrome P450 2C9 (Homo sapiens)",
    "classAssignment": "f"
  },
  {
    "compound": "Cc1noc(-c2ccc(-c3ccc(CC(=O)O)cc3)cc2)c1NC(=O)O[C@H](C)c1ccccc1Cl",
    "testTarget": "Cytochrome P450 2C9 (Homo sapiens)",
    "classAssignment": "t"
  }
]

Problem: Name the outcome recorded for "CC(C)S(=O)(=O)c1ccc2nccc(Nc3ccc4scnc4c3)c2c1" in the assay.
Result: t

Problem: Item: "O=C(O)c1cc(N(Cc2ccc(C3CCCCC3)cc2)C(=O)c2ccc(Oc3ccccc3)cc2)ccc1O"
Result: t

Problem: Item: "CCCC(CCC)C(=O)NCc1ccc2c(cnn2-c2ccccc2OC)c1"
Result: t

Problem: Item: "CNC(=O)[C@@H](c1ccccc1)N1CCc2cc(OC)c(OC)cc2[C@@H]1CCc1ccc(C(F)(F)F)cc1"
Result: t

Problem: Item: "Cc1cc(C(=O)Cn2cc(C#N)ccc2=O)c(C)n1Cc1ccccc1"
Result: t
